Experimental Details: inhibitors of hydroxyurea-induced Chk1 phosphorylation, primary screen, imaging, HeLa, phospho-Chk1 antibody, percent positive cells (AID 1186)
Protocol Conditions: hydroxyurea-induced phospho-Chk1 immunofluorescence imaging, higher = more signal
Here, each record is paired with measured z-score data.
API note: the answer field is a bare number with no unit suffix.

Check out these entries, answers already filled in.
compound=CCOC(=O)C1=CC[C@@H](c2ccccc2)N(S(=O)(=O)c2ccc(C)cc2)[C@H]1C(=O)OCC observed_result=0.0256
compound="CCOC(=O)C1=CCC(C(C)(C)C)N(S(=O)(=O)c2ccc(C)cc2)C1 (stereo not drawn)" observed_result=-1.42
compound=[N-]=[N+]=NCc1ccccc1C[C@@]1(C(=O)N2CCOCC2)N=C(c2ccc(OCCCO)cc2)O[C@@H]1c1ccccc1CN=[N+]=[N-] observed_result=-0.544
compound=C=C[C@@H](COC(C)=O)N(Cc1ccccc1[N+](=O)[O-])S(=O)(=O)c1ccc(Br)cc1 observed_result=-0.472
compound=C=C(CCCC)C(=O)CC[C@H](OC(=O)c1cccnc1)c1cccc(OCCO)c1 observed_result=-0.296
compound="CCCCCCCCCCC(O)C1C=CC2C(=O)N(Cc3ccccc3)C(=O)C2N1n1cnnc1 (stereo not drawn)" observed_result=0.577
compound=COC(=O)[C@@]1(Cc2ccccc2)N=C(c2ccc(OCCCO)cc2)O[C@H]1c1ccccc1N=[N+]=[N-] observed_result=-0.48

Shifting focus to the compound that follows.
// z-score lookup, compound = `CCOC(=O)C[C@H]1[C@H](OC(=O)Cc2ccc3c(c2)OCO3)[C@@H](NC(=O)c2ccc(-c3ccccc3)cc2)c2cc(OCCCO)ccc2N1C(=O)c1ccccc1` , result: -0.467

* * *

System: Noggin (protein binding on small-molecule microarray)
Experimental Details: Noggin binders on small-molecule microarray, primary screen, biochemical, 635/667 nm fluorescence (AID 1095);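 note: score merges 667 nm feature fluorescence with signal to noise over triplicate slides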
Protocol Conditions: 635 nm fluorescence, higher = more signal
Use composite z-score to assign classes; range list: low-valued: < 0.01; mid-valued: ≥ 0.01 and < 0.8; high-valued: ≥ 0.8

These solved cases illustrate the format of a correct answer.
molecule=COC(=O)c1c(CC[C@@H](CO)NC(=O)N[C@@H](Cc2ccccc2)Cn2cc(C3(O)CCCCC3)nn2)oc(C(C)=O)c1C(=O)OC discrete_label=high-valued
molecule="O=C1C2C=CC(C(O)c3ccc(-c4ccccc4)s3)N(n3cnnc3)C2C(=O)N1Cc1ccccc1 (stereo unspecified)" discrete_label=low-valued
molecule=O=C1N(CCS(=O)(=O)c2ccccc2)Cc2ccccc2C[C@]12N=C(c1ccc(OCCCO)cc1)O[C@@H]2c1ccccc1 discrete_label=high-valued
molecule=O=C1O[C@@H](c2ccccc2)[C@@H](c2ccccc2)N2[C@@H](c3ccccc3OCCO)[C@]3(C(=O)Nc4ccc(C#CC5(O)CCCCCC5)cc43)[C@@H](C(=O)Nc3nc4ccccc4s3)[C@H]12 discrete_label=high-valued
molecule=CCOC(=O)C[C@H]1[C@H](OC(=O)Cc2ccc3c(c2)OCO3)[C@@H](NC(=O)c2ccc(-c3ccccc3)cc2)c2cc(OCCCO)ccc2N1C(=O)c1ccccc1 discrete_label=mid-valued
molecule=CCOC(=O)C[C@H]1[C@H](OC(=O)c2ccccc2-c2ccccc2)[C@@H](NC(=O)c2ccc3ccccc3c2)c2cc(OCCCO)ccc2N1C(=O)c1ccc2ccccc2n1 discrete_label=mid-valued
molecule=COCCCNC(=O)[C@@]1(CCC(=O)OC(C)(C)C)N=C(c2ccc(OCCCO)cc2)O[C@H]1c1ccccc1CN=[N+]=[N-] discrete_label=mid-valued
molecule="CCCCCN1CC=CC23O[C@@H]4C=CCOC(=O)[C@@H]4[C@H]2C(=O)N(CCCO)[C@@H]3C1=O (stereo partly specified)" discrete_label=mid-valued
molecule=C=CCNC(=O)[C@H]1[C@@H]2C(=O)O[C@@H](c3ccccc3)[C@@H](c3ccccc3)N2[C@@H](c2ccc(O)cc2)[C@]12C(=O)N(C(=O)OCCOC)c1ccc(C#CCCO)cc12 discrete_label=low-valued
molecule=CC(=O)NCCCC[C@@H]1NC(=O)[C@H]2C[C@@H](C(=O)NCCCCCC[N+](C)(C)C)[C@@H](c3cccc(OCCO)c3)N2C1=O discrete_label=high-valued

Asked: Classify this molecule: `COC(=O)[C@@]1(Cc2ccccc2)[C@H]2c3cc(C(=O)N(C)C)n(Cc4cc(C)n(C)n4)c3C[C@H]2CN1C(=O)c1ccccc1`
Given back: low-valued

Asked: Place this molecule in its band: `CC(C)C(=C=CC[C@@H](O)c1ccccc1OCCO)C[C@@H](O)c1ccccn1`
Given back: mid-valued

Asked: Which band does `COCCOC(=O)N1C(=O)[C@@]2(c3cc(C#CC4(O)CCCCCC4)ccc31)[C@H](C(=O)N1CCCCCCC1)[C@H]1C(=O)O[C@H](c3ccccc3)[C@H](c3ccccc3)N1[C@@H]2c1ccccc1OCCO` fall in?
Given back: high-valued

Asked: Band of `C=CC[C@@]1(C(=O)N2CCOCC2)N=C(c2ccc(OCCCO)cc2)O[C@@H]1c1ccccc1N=[N+]=[N-]` ?
Given back: high-valued

Asked: Which band does `COCCOC(=O)N1C(=O)[C@@]2(c3cc(C#CCNC(N)=O)ccc31)[C@H](c1ccc(O)cc1)N1[C@H](c3ccccc3)[C@H](c3ccccc3)OC(=O)[C@H]1[C@@H]2C(=O)NC[C@H](O)c1ccccc1` fall in?
Given back: mid-valued

* * *

Target Entity: NADPH oxidase 2 (Homo sapiens) (UniProt P04839)
Sequence (P04839 whole entry, looked up): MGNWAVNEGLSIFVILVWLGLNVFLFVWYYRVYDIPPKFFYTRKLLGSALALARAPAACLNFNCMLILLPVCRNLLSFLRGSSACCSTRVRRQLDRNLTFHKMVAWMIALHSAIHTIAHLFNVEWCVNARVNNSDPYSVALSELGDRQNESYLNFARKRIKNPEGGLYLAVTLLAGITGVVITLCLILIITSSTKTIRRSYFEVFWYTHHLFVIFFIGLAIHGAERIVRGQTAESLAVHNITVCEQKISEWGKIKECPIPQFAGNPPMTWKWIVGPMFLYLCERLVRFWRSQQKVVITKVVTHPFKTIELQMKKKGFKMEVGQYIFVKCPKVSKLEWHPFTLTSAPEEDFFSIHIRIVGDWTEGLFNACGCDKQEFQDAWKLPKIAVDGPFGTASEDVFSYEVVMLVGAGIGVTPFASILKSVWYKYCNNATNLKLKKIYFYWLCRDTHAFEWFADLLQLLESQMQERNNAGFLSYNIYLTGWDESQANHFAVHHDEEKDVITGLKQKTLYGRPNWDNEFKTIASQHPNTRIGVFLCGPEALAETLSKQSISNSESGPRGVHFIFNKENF
Experimental Details: NOX2-dependent H2O2 signal modulators, primary screen, NOX inhibitor project, cell-based, HEK293-NOX2, PMA-stimulated, Amplex Red fluorescence (AID 1159); note: test concentration not given here
Protocol Conditions: 45 min, higher = more signal, called active from +8 up or from −8 down
The class of a record is decided solely by its measured z-score; consult range A (below 0.6), range B (0.6 to below 1), range C (1 or more)

molecule=COC(=O)[C@]1(Cc2ccccc2N=[N+]=[N-])N=C(c2ccc(OCCCO)cc2)O[C@@H]1c1ccccc1N=[N+]=[N-] discrete_label="range A"
molecule=COCCOC(=O)N1C(=O)[C@@]2(c3cc(C#CCC(C(=O)OC)C(=O)OC)ccc31)[C@H](c1ccccc1OCCO)N1[C@H](c3ccccc3)[C@H](c3ccccc3)OC(=O)[C@H]1[C@@H]2C(N)=O discrete_label="range B"

Asked: Using the reported z-score, which band applies to `COCC1=C2[C@@H](CCc3ccccc3)OB(O)C[C@@H]2[C@@H]2C(=O)N(Cc3ccccc3)C(=O)[C@@H]2C1` ?
Given back: range A

Asked: Band assignment needed for COc1ccc(NN2C(C(O)c3ccc(OC)c(OCc4ccccc4)c3)C=CC3C(=O)N(C4CCCCC4)C(=O)C32)cc1 (stereo not drawn) please.
Given back: range A

Asked: Record `CC(C)N1C(=O)c2ccccc2[C@@H](C(=O)NCCCN(C)C)[C@@H]1c1ccc(CO)cc1` — which class?
Given back: range C

Asked: Sort into band: `CCOC(=O)[C@H]1C/C=C/C[C@H](C(=O)OCC)C(=O)O[C@H]2[C@@H](OC)O[C@H](CO)[C@@H](OC(=O)Nc3ccc4c(c3)OCO4)[C@@H]2OC1=O`
Given back: range A

Asked: Where would `COCCOC(=O)N1C(=O)[C@@]2(c3cc(C#CCNC(N)=O)ccc31)[C@H](c1ccccc1OCCO)N1[C@H](c3ccccc3)[C@H](c3ccccc3)OC(=O)[C@H]1[C@@H]2C(N)=O` land among the classes by reported z-score?
Given back: range C

Asked: Hi there! Could you help me figure out the category for `CC(C)NC(=O)[C@@]1(Cc2ccccc2I)c2ccccc2C(=O)N(Cc2ccccc2)[C@H]1c1ccc(CO)cc1` please?
Given back: range C

Asked: Place this molecule in its band: O=C1OCCC=C[C@H]2OC34C=CCN(Cc5ccccc5)C(=O)[C@H]3N(CCCCCCO)C(=O)[C@@H]4C12 (stereo partly drawn)
Given back: range C

* * *

Experimental Details: small-molecule microarray binders of probe aWnt5a, primary screen, biochemical, biotinylated probe, 635/667 nm fluorescence (AID 1113);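 note: score merges 667 nm fluorescence intensity with signal-to-noise per printed feature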
Protocol Conditions: higher = more signal
Quantity: composite z-score
Number, no unit, nothing else.

Value of measured composite z-score for the entry `CC(C)(C)OC(=O)CC[C@]1(C(=O)N2CCCCC2)N=C(c2ccc(OCCCO)cc2)O[C@H]1c1ccccc1N=[N+]=[N-]` : 0.152

Kindly note the recorded composite z-score for `[N-]=[N+]=NCc1ccccc1[C@H]1OC(c2ccc(OCCCO)cc2)=N[C@@]1(CCS(=O)(=O)c1ccccc1)C(=O)N1CCOCC1` , which is 0.242

GET /value?item= `O=C(O)[C@@]1(Cc2ccccc2)N=C(c2ccc(OCCCO)cc2)O[C@H]1c1ccccc1` &field=composite z-score returns -0.0179

Kindly note the recorded composite z-score for `CC(C)C(=C=CC[C@H](O)c1cccc(OCCO)c1)C[C@H](O)COCc1ccccc1` , which is -0.096

// composite z-score lookup, compound = O=C1OCC=C[C@H]2OC34C=CCN(c5ccc(Cl)cc5)C(=O)[C@H]3N(CCCCCCO)C(=O)[C@@H]4[C@@H]12 (some centres undefined) , result: -0.128

Measured composite z-score, O=C1C2C=CC(C(O)c3ccc(F)cc3)N(Nc3ccccc3)C2C(=O)N1c1ccccc1 (centres undefined) : 0.0597
